molecules and their reported melting point
Give just the numeric value; °C need not be written.

Observe how each entry below is paired with its result.
# molecule, unit annotation, melting point
data = [
    ("O=C(Cl)c1cc2ccccc2[nH]1", "°C", 120),
    ("CC(C)CCC(=O)CC1c2ccccc2C(=O)N1c1ccc2ccc(Cl)nc2n1 (stereo not drawn)", "°C", 172),
    ("Cc1cc(C)cc(Nc2ccc(Nc3ccccc3)c3c2C(=O)c2ccccc2C3=O)c1", "°C", 220),
]

Consider the additional molecule presented here.
Entry CC(C)(C)[N+]([O-])=Cc1cc(Cl)ccc1O has what melting point?
143

---

experimental readout: melting point

# compound, melting point
rows = [
    ("CN(C)C(=N[N+](=O)[O-])N(C#N)Cc1cnc(Cl)s1", "152 to 155 °C"),
    ("CC(=O)Nc1ccc(F)c(F)c1", "127 to 128 °C"),
]

Consider the additional compound presented here.
Entry CCOC(=O)N1CCC(=C2c3ccccc3CCn3c(C(=O)O)cnc32)CC1 has what melting point?
182 °C

---

molecules and their reported melting point

Entry CCCCN(c1nc(N(CC)CC)nc(N(CCCC)C2CC(C)(C)N(OC)C(C)(C)C2)n1)C1CC(C)(C)N(OC)C(C)(C)C1 has what melting point?
109 to 112 °C

---

experimental readout: melting point

Entry Nc1ccc(-c2ccc(-c3ccc(N)cc3Cl)o2)c(Cl)c1 has what melting point?
192 to 193 °C

Entry COc1cc2[nH]cc(C(=O)C(Cl)(Cl)Cl)c2cc1Br has what melting point?
185 to 190 °C

Entry N#CC(=C1C=CC(=NO[Si](c2ccccc2)(c2ccccc2)c2ccccc2)C=C1)c1ccccc1 has what melting point?
161 to 165 °C

---

compounds and their reported melting point

Observe how each entry below is paired with its result.
# compound, melting point
rows = [
    ("COCc1nc2c(OC)ccc(C(=O)Cc3ccncc3)c2[nH]1", "218 to 220 °C"),
    ("CCOC(=O)c1cnn2c1c(Cl)nc1c(C)nn(C)c12", "130 to 132 °C"),
    ("CCCc1c(OCCCCCC(=O)c2ccc3cc(OC)c(OC)cc3c2)ccc(C(=O)OC)c1O", "111 to 112 °C"),
    ("CC12CCC3c4ccc(O)cc4CCC3C1CC(O)C2=C(F)F (stereo unspecified)", "225 to 227 °C"),
    ("COc1ccc2cccc(CC(=O)O)c2c1", "154 to 156 °C"),
]

Consider the additional compound presented here.
Entry CN(c1cccc2cc(C3=NCC4(CCC5(CC4)OCCO5)S3)[nH]c12)S(=O)(=O)c1cccs1 has what melting point?
224 to 225 °C

---

molecules and their reported melting point

# molecule, melting point
data = [
    ("O=c1cc2c(nn1-c1ccccc1)-c1ccccc1CC2", "155 to 157 °C"),
    ("O=C1Cc2cc3c(CCC4CCN(Cc5ccc(Br)cc5)CC4)noc3cc2N1", "177 to 178 °C"),
    ("N#CCc1cccn1Cc1ccccc1", "62 to 63 °C"),
]

Entry CN1C(=O)CCCc2cc(Nc3ncc(Cl)c(Nc4ccc(N5CCOCC5)cc4C(N)=O)n3)ccc21 has what melting point?
288 to 290 °C

Entry CNC(=S)C1=C(O)C(C)(C)Oc2ccc([N+](=O)[O-])cc21 has what melting point?
148 to 149 °C
